target: T1, wild type pKal catalytic domain (human, UniProt P03952 391-638, limits assumed); assay: apparent Ki (Ki,app), enzyme inhibition, wild type pKal catalytic domain
T1 construct: domain: catalytic domain; also called WT cat; Domain; not shown: His tag fusion
T1 sequence (P03952 391-638 limits assumed): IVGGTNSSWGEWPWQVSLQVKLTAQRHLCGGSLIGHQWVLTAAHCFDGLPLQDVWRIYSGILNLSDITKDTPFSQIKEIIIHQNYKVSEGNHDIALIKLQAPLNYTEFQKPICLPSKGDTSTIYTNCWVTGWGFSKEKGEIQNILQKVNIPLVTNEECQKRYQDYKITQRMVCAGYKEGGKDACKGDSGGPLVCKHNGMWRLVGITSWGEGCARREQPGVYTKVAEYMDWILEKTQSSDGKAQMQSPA
Would you mind telling me the reported Ki of each entry?
Give just the numeric value; nM need not be written.

## Task Reported Ki for M145-D11 (Fab, V domains shown, also called 559A-M145-D11 (sFab); 559A-M0145-D11) VH: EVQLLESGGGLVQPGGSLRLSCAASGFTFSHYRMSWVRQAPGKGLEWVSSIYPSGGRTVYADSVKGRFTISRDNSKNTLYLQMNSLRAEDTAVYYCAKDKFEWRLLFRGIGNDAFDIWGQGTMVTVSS VL: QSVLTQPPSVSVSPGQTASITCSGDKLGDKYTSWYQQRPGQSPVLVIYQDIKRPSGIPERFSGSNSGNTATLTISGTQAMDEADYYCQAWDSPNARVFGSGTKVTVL : what is it?
## Result 0.16

## Task Request: X115-B07 (antibody, V domains shown, also called 559A-X115-B07; 559A-X0115-B07) VH: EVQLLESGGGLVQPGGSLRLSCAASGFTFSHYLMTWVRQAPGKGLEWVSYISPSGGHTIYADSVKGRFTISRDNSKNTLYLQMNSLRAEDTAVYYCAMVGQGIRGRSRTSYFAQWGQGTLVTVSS VL: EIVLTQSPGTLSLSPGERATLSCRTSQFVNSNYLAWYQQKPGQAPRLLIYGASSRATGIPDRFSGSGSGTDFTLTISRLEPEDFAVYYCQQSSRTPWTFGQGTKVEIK
## Result 0.13

## Task Query M29-D09 (Fab, V domains shown, also called 559A-M29-D09 (sFab); 559A-M0029-D09) VH: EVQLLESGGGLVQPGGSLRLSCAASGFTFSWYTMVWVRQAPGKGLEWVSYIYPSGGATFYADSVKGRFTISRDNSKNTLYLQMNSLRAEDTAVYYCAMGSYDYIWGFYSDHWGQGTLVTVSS VL: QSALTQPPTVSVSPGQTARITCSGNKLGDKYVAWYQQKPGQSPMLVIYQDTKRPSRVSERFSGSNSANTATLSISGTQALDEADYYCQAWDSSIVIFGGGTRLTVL next
## Result 0.24
